method notes: Human HepG2 cell viability assay in 384 well format
Assay type: toxicity, cell-based
Design: dose 125 nL, time 70.5 hour; concentration not given beside the values
test settings: HepG2 cells, read-out: Inhibition
metric name: cytotoxicity at 70.5 h (%)
Supply the numeric figure in %, leaving out any unit text.

Consider the worked cases shown below.
>>> df
                                   compound  measure_unit  recorded_measurement
0    CC(=O)Nc1ccc(CNC(=O)CNCc2sc(C)nc2C)cc1             %                  6.71
1        COCCN(Cc1ccc(C)o1)C(=O)Nc1ncc(C)s1             %                 -8.73
2  COc1ccccc1CC(NC(=O)N1CCC[C@@H]1CO)C(C)C (stereo not given in full)             %                 -6.32
3  CN(Cc1ccncc1)C(=O)Nc1cnn(CC2CCCO2)c1 (stereo not given)             %                 -3.42

Next up:
Problem: Reported cytotoxicity at 70.5 h, compound "CNS(=O)(=O)Cc1cccc(CNc2ccc(C#N)cn2)c1" : ____
Solution: -10.5

These entries and their values trace back to ChEMBL document CHEMBL3507680.
